We begin with a simple list: items and their reported % Binding of peptide-coated SB to normal cultured cells.
tested on: porcine smooth muscle cells (SMC); assay: Haptotaxis assay: attachment of ligand-coated SB to cultured cells; assay type: cell-based; details: percentage of SB-ligand attached to cells by day 4
No end group written: not given here.
The response must be a number in % with no trailing unit.

Below are worked cases with known answers.
SB-PreCγ: peptide preCγ (SEQ ID NO:2) covalently attached to sepharose beads (KTRWYSMKKTTMKIIPFNRL; also: attached to sepharose beads) | 98
SB-Cβ: peptide-Cβ (SEQ ID NO:1) covalently attached to sepharose beads (KGSWYSMRKMSMKIRPFFPQQ; also: attached to sepharose beads) | 100
SB-Cγ: peptide Cγ (SEQ ID NO:5) covalently attached to sepharose beads (LTIGEGQQHHLGGAKQAGDV; also: attached to sepharose beads) [reference compound] | 1
SB-Cα: peptide-Cα (SEQ ID NO:4) covalently attached to sepharose beads (EADHEGTHSTKRGHAKSRP; also: attached to sepharose beads) [reference compound] | 0

Now look at this one.
Report measured % Binding of peptide-coated SB to normal cultured cells; entry is SB-CαE: peptide-CαE (SEQ ID NO:3) covalently attached to sepharose beads (RGADYSLRAVRMKIRPLVTQ; also: attached to sepharose beads) 8

---

System: normal human skin fibroblasts (HF)
Assay: Haptotaxis assay: attachment of ligand-coated sepharose beads (SB) to cultured cells
Assay type: cell-based
Settings: percentage of SB-ligand attached to cells by day 4
Source text: Peptides or fibrinogen were covalently bound to CNBr activated sepharose beads (SB) (Pharmacia, Piscataway, N.J.) using techniques previously used to bind albumin, fibrinogen and thrombin. […] This procedure covalently binds more than 95% of proteins or peptides including fibrinogen or peptides-CαE (SEQ ID NO:3), Cβ (SEQ ID NO:1) and preCγ (SEQ ID NO:2) to the beads determined by Abs280 readings of the solutions. […]
No end group written: not given here.
PROPERTY NAME: % Binding of peptide-coated SB to normal cultured cells (%)
Your answer is read as %, so omit the unit and give the number.

SB-Cα: peptide-Cα (SEQ ID NO:4) covalently attached to sepharose beads (EADHEGTHSTKRGHAKSRP; also: attached to sepharose beads) [reference compound] | 0

State, in one line, measured % Binding of peptide-coated SB to normal cultured cells of SB-Cγ: peptide Cγ (SEQ ID NO:5) covalently attached to sepharose beads (LTIGEGQQHHLGGAKQAGDV; also: attached to sepharose beads) [reference compound] 2

Return % Binding of peptide-coated SB to normal cultured cells (reported value) for this substance: SB-CαE: peptide-CαE (SEQ ID NO:3) covalently attached to sepharose beads (RGADYSLRAVRMKIRPLVTQ; also: attached to sepharose beads) 52

Read the entry SB-Cβ: peptide-Cβ (SEQ ID NO:1) covalently attached to sepharose beads (KGSWYSMRKMSMKIRPFFPQQ; also: attached to sepharose beads) and write its reported % Binding of peptide-coated SB to normal cultured cells. 100

Specify % Binding of peptide-coated SB to normal cultured cells for SB-PreCγ: peptide preCγ (SEQ ID NO:2) covalently attached to sepharose beads (KTRWYSMKKTTMKIIPFNRL; also: attached to sepharose beads) and stop. 100

---

% Binding of peptide-coated SB to normal cultured cells: recorded values
test system: human ovarian carcinoma cells (OV-1063); experiment: Haptotaxis assay: attachment of ligand-coated SB to cultured cells; type: cell-based; conditions: percentage of SB-ligand attached to cells by day 4
No end group written: not given here.
Give the quantity in %, number only.

Use these answered entries as a reference point.
SB-Cβ: peptide-Cβ (SEQ ID NO:1) covalently attached to sepharose beads (KGSWYSMRKMSMKIRPFFPQQ; also: attached to sepharose beads) | 4
SB-Cα: peptide-Cα (SEQ ID NO:4) covalently attached to sepharose beads (EADHEGTHSTKRGHAKSRP; also: attached to sepharose beads) [reference compound] | 0
SB-Cγ: peptide Cγ (SEQ ID NO:5) covalently attached to sepharose beads (LTIGEGQQHHLGGAKQAGDV; also: attached to sepharose beads) [reference compound] | 0

Turning now to a further record.
// fetch % Binding of peptide-coated SB to normal cultured cells for SB-CαE: peptide-CαE (SEQ ID NO:3) covalently attached to sepharose beads (RGADYSLRAVRMKIRPLVTQ; also: attached to sepharose beads) ; system: human ovarian carcinoma cells (OV-1063) 0
